Sourced from paper PMC11489206

experimentDescription: Transport study across hiPSC-derived IEC layers
assayConditions: human
Documented efflux ratio at 60 min, 1 µM across a set of molecules
Answer with the value's number alone.

O=C(O)C(F)(F)C(F)(F)C(F)(F)C(F)(F)C(F)(F)C(F)(F)C(F)(F)F [PFOA, perfluorooctanoic acid]: 1.62
O=S(=O)(O)C(F)(F)C(F)(F)C(F)(F)C(F)(F)C(F)(F)C(F)(F)F [PFHxS, perfluorohexane sulfonate]: 1.7
O=C(O)C(F)(F)C(F)(F)C(F)(F)C(F)(F)C(F)(F)C(F)(F)C(F)(F)C(F)(F)F [PFNA, perfluorononanoic acid]: 1.48

Identify measured efflux ratio at 60 min, 1 µM associated with O=C(O)C(F)(OC(F)(F)C(F)(F)C(F)(F)F)C(F)(F)F (centres unmarked) [HFPO-DA, hexafluoropropylene oxide dimer acid]
1.45

Identify measured efflux ratio at 60 min, 1 µM associated with O=S(=O)(O)C(F)(F)C(F)(F)C(F)(F)C(F)(F)C(F)(F)C(F)(F)C(F)(F)C(F)(F)F [PFOS, perfluorooctane sulfonate]
1.31

---

experimentDescription: Transport study across hiPSC-derived IEC layers
assayConditions: human
measuredEndpoint: Papp A→B at 60 min, 1 µM (×10⁻⁶ cm/s)
Report the figure in ×10⁻⁶ cm/s without appending any unit label.

O=S(=O)(O)C(F)(F)C(F)(F)C(F)(F)C(F)(F)C(F)(F)C(F)(F)F [PFHxS, perfluorohexane sulfonate]: 3.95
O=S(=O)(O)C(F)(F)C(F)(F)C(F)(F)C(F)(F)C(F)(F)C(F)(F)C(F)(F)C(F)(F)F [PFOS, perfluorooctane sulfonate]: 0.63
O=C(O)C(F)(OC(F)(F)C(F)(F)C(F)(F)F)C(F)(F)F (centres unmarked) [HFPO-DA, hexafluoropropylene oxide dimer acid]: 3.09
O=C(O)C(F)(F)C(F)(F)C(F)(F)C(F)(F)C(F)(F)C(F)(F)C(F)(F)C(F)(F)F: 1.95

Then this molecule:
Identify measured Papp A→B at 60 min, 1 µM associated with `O=C(O)C(F)(F)C(F)(F)C(F)(F)C(F)(F)C(F)(F)C(F)(F)C(F)(F)F`
3.27

---

experimentDescription: Transport study across Caco-2 cell layers
assayConditions: human, Caco-2
Procedure: Human colorectal adenocarcinoma cells (Caco-2, HTB-37) were obtained from American Type Culture Collection (ATCC, Manassas, VA). […] After 21 days of differentiation (using 500 µl cell culture medium in the apical and 1500 µl in the basolateral compartment), monolayer integrity was determined by measuring transepithelial electrical resistance (TEER) with a Millicell ERS Volt-Ohm meter (Millipore, Bedford, MA). […]
measuredEndpoint: efflux ratio at 60 min, 1 µM
Answer with the value's number alone.

Identify measured efflux ratio at 60 min, 1 µM associated with `O=C(O)C(F)(F)C(F)(F)C(F)(F)C(F)(F)C(F)(F)C(F)(F)C(F)(F)F`
1.36

Identify measured efflux ratio at 60 min, 1 µM associated with `O=C(O)C(F)(F)C(F)(F)C(F)(F)C(F)(F)C(F)(F)C(F)(F)C(F)(F)C(F)(F)F`
0.69

Identify measured efflux ratio at 60 min, 1 µM associated with O=S(=O)(O)C(F)(F)C(F)(F)C(F)(F)C(F)(F)C(F)(F)C(F)(F)C(F)(F)C(F)(F)F [PFOS, perfluorooctane sulfonate]
0.37

Identify measured efflux ratio at 60 min, 1 µM associated with O=S(=O)(O)C(F)(F)C(F)(F)C(F)(F)C(F)(F)C(F)(F)C(F)(F)F [PFHxS, perfluorohexane sulfonate]
1.33

---

Documented Papp A→B at 60 min, 1 µM across a set of compounds
experimentDescription: Transport study across Caco-2 cell layers
assayConditions: human, Caco-2
Report the figure in nm/s without appending any unit label.

Below, each entry is followed by its recorded Papp A→B at 60 min, 1 µM result.
O=S(=O)(O)C(F)(F)C(F)(F)C(F)(F)C(F)(F)C(F)(F)C(F)(F)F [PFHxS, perfluorohexane sulfonate]: 87.8
O=S(=O)(O)C(F)(F)C(F)(F)C(F)(F)C(F)(F)C(F)(F)C(F)(F)C(F)(F)C(F)(F)F [PFOS, perfluorooctane sulfonate]: 28.8
O=C(O)C(F)(F)C(F)(F)C(F)(F)C(F)(F)C(F)(F)C(F)(F)C(F)(F)C(F)(F)F [PFNA, perfluorononanoic acid]: 45.5

Then this compound:
Identify measured Papp A→B at 60 min, 1 µM associated with O=C(O)C(F)(F)C(F)(F)C(F)(F)C(F)(F)C(F)(F)C(F)(F)C(F)(F)F [PFOA, perfluorooctanoic acid]
42.3

---

experimentDescription: Transport study across hiPSC-derived IEC layers
assayConditions: human
measuredEndpoint: Papp A→B at 60 min, 10 µM (×10⁻⁶ cm/s)
Report the figure in ×10⁻⁶ cm/s without appending any unit label.

Below, each entry is followed by its recorded Papp A→B at 60 min, 10 µM result.
CC(C)NCC(O)COc1cccc2ccccc12 (stereo not shown) [Propranolol, propranolol]: 26.7
C=C[C@H]1C[N@@]2CC[C@H]1C[C@@H]2[C@@H](O)c1ccnc2ccc(OC)cc12 [Quinidine, quinidine]: 22.3
CCOC(=O)[C@H](CCc1ccccc1)N[C@@H](C)C(=O)N1CCC[C@H]1C(=O)O [Enalapril, enalapril]: 2.95

Then this compound:
Identify measured Papp A→B at 60 min, 10 µM associated with CCCC(=O)Nc1ccc(OCC(O)CNC(C)C)c(C(C)=O)c1 (stereo not shown) [Acebutolol, acebutolol]
1.95

---

experimentDescription: Transport study across EpiIntestinal microtissues
assayConditions: human
measuredEndpoint: Papp A→B at 60 min, 1 µM (×10⁻⁶ cm/s)
Report the figure in ×10⁻⁶ cm/s without appending any unit label.

Below, each entry is followed by its recorded Papp A→B at 60 min, 1 µM result.
O=C(O)C(F)(F)C(F)(F)C(F)(F)C(F)(F)C(F)(F)C(F)(F)C(F)(F)F: 7.31
O=C(O)C(F)(OC(F)(F)C(F)(F)C(F)(F)F)C(F)(F)F (centres unmarked) [HFPO-DA, hexafluoropropylene oxide dimer acid]: 1.16
O=S(=O)(O)C(F)(F)C(F)(F)C(F)(F)C(F)(F)C(F)(F)C(F)(F)C(F)(F)C(F)(F)F [PFOS, perfluorooctane sulfonate]: 5.97

Identify measured Papp A→B at 60 min, 1 µM associated with `O=C(O)C(F)(F)C(F)(F)C(F)(F)C(F)(F)C(F)(F)C(F)(F)C(F)(F)C(F)(F)F`
8.48

Identify measured Papp A→B at 60 min, 1 µM associated with O=S(=O)(O)C(F)(F)C(F)(F)C(F)(F)C(F)(F)C(F)(F)C(F)(F)F [PFHxS, perfluorohexane sulfonate]
12.5

---

Documented Papp A→B at 60 min, 10 µM across a set of molecules
experimentDescription: Transport study across Caco-2 cell layers
assayConditions: human, Caco-2
Kindly write the number and append the unit.

Below, each entry is followed by its recorded Papp A→B at 60 min, 10 µM result.
CCOC(=O)[C@H](CCc1ccccc1)N[C@@H](C)C(=O)N1CCC[C@H]1C(=O)O: 0.28 ×10⁻⁶ cm/s
CCCC(=O)Nc1ccc(OCC(O)CNC(C)C)c(C(C)=O)c1 (stereo not shown): 0.42 ×10⁻⁶ cm/s
CC(C)NCC(O)COc1cccc2ccccc12 (stereo not shown): 11.8 ×10⁻⁶ cm/s

Then this molecule:
Identify measured Papp A→B at 60 min, 10 µM associated with CC(=O)CC(c1ccccc1)c1c(O)c2ccccc2oc1=O (stereo not shown)
17.9 ×10⁻⁶ cm/s

---

experimentDescription: Transport study across Caco-2 cell layers
assayConditions: human, Caco-2
Experimental: Human colorectal adenocarcinoma cells (Caco-2, HTB-37) were obtained from American Type Culture Collection (ATCC, Manassas, VA). […] After 21 days of differentiation (using 500 µl cell culture medium in the apical and 1500 µl in the basolateral compartment), monolayer integrity was determined by measuring transepithelial electrical resistance (TEER) with a Millicell ERS Volt-Ohm meter (Millipore, Bedford, MA). […]
measuredEndpoint: efflux ratio at 60 min, 10 µM
Answer with the value's number alone.

CCCC(=O)Nc1ccc(OCC(O)CNC(C)C)c(C(C)=O)c1 (centres unmarked) [Acebutolol, acebutolol]: 7.37

Then this molecule:
Identify measured efflux ratio at 60 min, 10 µM associated with CCOC(=O)[C@H](CCc1ccccc1)N[C@@H](C)C(=O)N1CCC[C@H]1C(=O)O [Enalapril, enalapril]
1.55

---

experimentDescription: Transport study across EpiIntestinal microtissues
assayConditions: human
measuredEndpoint: Papp B→A at 60 min, 1 µM (×10⁻⁶ cm/s)
Report the figure in ×10⁻⁶ cm/s without appending any unit label.

O=S(=O)(O)C(F)(F)C(F)(F)C(F)(F)C(F)(F)C(F)(F)C(F)(F)F [PFHxS, perfluorohexane sulfonate]: 14.1
O=C(O)C(F)(OC(F)(F)C(F)(F)C(F)(F)F)C(F)(F)F (centres unmarked) [HFPO-DA, hexafluoropropylene oxide dimer acid]: 1.04
O=C(O)C(F)(F)C(F)(F)C(F)(F)C(F)(F)C(F)(F)C(F)(F)C(F)(F)C(F)(F)F: 7.51
O=C(O)C(F)(F)C(F)(F)C(F)(F)C(F)(F)C(F)(F)C(F)(F)C(F)(F)F: 6.99

Then this compound:
Identify measured Papp B→A at 60 min, 1 µM associated with O=S(=O)(O)C(F)(F)C(F)(F)C(F)(F)C(F)(F)C(F)(F)C(F)(F)C(F)(F)C(F)(F)F [PFOS, perfluorooctane sulfonate]
3.31
